assayName: Induction of HIV1 NL4-3 nucleocapsid protein disassembly expressed in expressed in Escherichia coli BL21 (DE3) using 5'-end fluorescein labeled (TG)25 oligonucleotide after 2 hrs by fluorescence assay
Design: species or system Human immunodeficiency virus 1

[
  {
    "molecule": "CCN1C(=O)C2(CCc3c2ccc(O)c3-c2cnn(C)c2)C(=O)N(c2ccccc2)c2cc(C(F)(F)F)ccc21 (stereo not given)",
    "IC50 [µM]": 0.2
  },
  {
    "molecule": "CCN1C(=O)C(c2ccc(O)c(-c3cnn(C)c3)c2)C(=O)N(c2ccccc2)c2cc(C(F)(F)F)ccc21 (stereo not given)",
    "IC50 [µM]": 0.12
  },
  {
    "molecule": "CCN1C(=O)C(c2ccc(O)cc2)C(=O)N(c2ccccc2)c2cc(C(F)(F)F)ccc21 (stereo not given)",
    "IC50 [µM]": 0.18
  },
  {
    "molecule": "CCN1C(=O)C(c2cccc(-c3cnn(C)c3)c2)C(=O)N(c2ccccc2)c2cc(C(F)(F)F)ccc21 (stereo not given)",
    "IC50 [µM]": 0.13
  },
  {
    "molecule": "CCN1C(=O)C(c2ccc(O)c(OC)c2)C(=O)N(c2ccccc2)c2cc(C(F)(F)F)ccc21 (stereo not given)",
    "IC50 [µM]": 0.11
  },
  {
    "molecule": "CCN1C(=O)C(c2cc(-c3cnn(C)c3)ccc2O)C(=O)N(c2ccccc2)c2cc(C(F)(F)F)ccc21 (stereo not given)",
    "IC50 [µM]": 0.17
  },
  {
    "molecule": "CCN1C(=O)C(c2ccc(-c3cccnc3)cc2)C(=O)N(c2ccccc2)c2cc(C(F)(F)F)ccc21 (stereo not given)",
    "IC50 [µM]": 0.32
  },
  {
    "molecule": "CCN1C(=O)C(c2ccccc2)C(=O)N(c2ccccc2)c2cc(C(F)(F)F)ccc21 (stereo not given)",
    "IC50 [µM]": 0.48
  },
  {
    "molecule": "CCN1C(=O)C(c2ccc(-c3cnco3)cc2)C(=O)N(c2ccccc2)c2cc(C(F)(F)F)ccc21 (stereo not given)",
    "IC50 [µM]": 0.47
  },
  {
    "molecule": "CCN1C(=O)C(c2cccc(-c3ccnn3C)c2)C(=O)N(c2ccccc2)c2cc(C(F)(F)F)ccc21 (stereo not given)",
    "IC50 [µM]": 0.3
  }
]
